Assay system: T1, 4H968-bH
T1 chain: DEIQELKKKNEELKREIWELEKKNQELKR
Protocol details: two-hybrid library CCNG1;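 note: natural log of median RNA to DNA barcode read ratio; higher means stronger binding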
Kindly state interaction score for each of the entries shown.
Answer with the value's number alone.

Item DEIQELKKENEELERKIWELKKENQELER [4H683-bH] has what recorded interaction score? 1.12

Can you look up the measured interaction score of DEIQELKKENEELKRKNWELEKEIQELKR [4H754-bH] for me? -0.182

What value of interaction score has been reported for the following binder? DEIQELKKKNEELKREIWELEKKNQELKR [4H968-bH] 0.196

I am curious: what interaction score value has been reported for DKNQELKKKNEELKRKIWELKKEIQELER [4H4073-bH] ? -1.06

Record request: interaction score value, item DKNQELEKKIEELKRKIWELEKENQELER [4H3427-bH] -0.828

Any idea what interaction score was measured for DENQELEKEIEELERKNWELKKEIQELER [4H1081-bH] ? -0.887

Item under review: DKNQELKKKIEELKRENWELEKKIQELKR [4H3926-bH] . Reported interaction score? 1.04
